Species on record: Cavia porcellus
Method Notes: Effect on the frequency rate of spontaneously beating atria from Reserpine-treated guinea pigs as percentage variation from the control at concentration of 10E-4 M
Format: functional
Experimental Readout: Variation (%)
Report as a plain number; the unit % is understood.

Enquiry: Given CCOC(=O)c1cnc(N(C)C)nc1 , respond with its Variation.
Return: 11.11

Enquiry: Provide Variation value for the following molecule: CCCc1nc(N(C)C)ncc1C(=O)O
Return: -2.85

Enquiry: State its Variation: CN(C)c1ncc(C(=O)O)c(-c2ccccc2)n1
Return: -3.12

Enquiry: Name the recorded Variation of the molecule listed here: Cc1nc(N(C)C)ncc1C(=O)O
Return: 3.22

Enquiry: Report measured Variation; entry is CCOC(=O)c1cnc(N(C)C)nc1-c1ccccc1
Return: -3.7

Enquiry: Consider the molecule CN(C)c1ncc(C(=O)O)c(Cc2ccccc2)n1 and give its recorded Variation.
Return: -5.02

Enquiry: Provide measured Variation value, entry: CN(C)c1nccc(-c2ccccc2)n1
Return: 0

---

Species on record: Cavia porcellus
Method Notes: Effect on the frequency rate of spontaneously beating atria from Reserpine-treated guinea pigs as percentage variation from the control at concentration of 10E-4 M
Assay type: functional
Experimental Readout: Variation (%)
Write it as a number; the unit % goes unstated.

Enquiry: Indicate the recorded Variation value for this compound: CN(C)c1nccc(C(C)(C)C)n1
Return: -16.66

Enquiry: Name the recorded Variation of the item CCOC(=O)c1cnc(N(C)C)nc1C in your answer.
Return: 7.14

Enquiry: Hello, please tell me recorded Variation for this one: COCc1nc(N(C)C)ncc1C(=O)O
Return: -6.25

Enquiry: Consider the compound Cc1ccnc(N(C)C)n1 . State its measured Variation.
Return: 0

Enquiry: Quote Variation reported for CCOC(=O)c1cnc(N(C)C)nc1C(C)(C)C please.
Return: -100

Enquiry: Given the compound COCc1nc(N(C)C)ncc1C(=O)OC , write its reported Variation.
Return: 7.14

Enquiry: Supply measured Variation of Nc1cc(-c2ccncc2)c[nH]c1=O [INAMRINONE] in your reply.
Return: 6.25

Enquiry: Please list Variation recorded for the compound CN(C)c1nccc(C(F)(F)F)n1
Return: -22.58

Enquiry: Item CC(C)c1nc(N(C)C)ncc1C(=O)O : provide Variation
Return: -14.28

Enquiry: Report measured Variation; entry is CN(C)c1ncc(C(=O)O)cn1
Return: 3.44

Enquiry: Tell me Variation reported for CCc1nc(N(C)C)ncc1C(=O)O
Return: 1.11

Enquiry: Please give measured Variation of the following entry: CN(C)c1ncc(C(=O)O)c(C(F)(F)F)n1
Return: -3.03

Enquiry: Return the recorded Variation value; entry: CCCc1ccnc(N(C)C)n1
Return: -52.63

Enquiry: Supply recorded Variation for CCOC(=O)c1cnc(N(C)C)nc1C(=O)OCC here.
Return: -40.77

Enquiry: Note Variation for the compound shown: COC(=O)c1cnc(N(C)C)nc1Cc1ccccc1
Return: -16.06

Enquiry: // Input: CCOC(=O)c1cnc(N(C)C)nc1C(C)C . Output its Variation only.
Return: -2.94

---

Species: Cavia porcellus
Method Notes: Effect on the frequency rate of spontaneously beating atria from Reserpine-treated guinea pigs as percentage variation from the control at concentration of 10E-4 M
Format: functional
Experimental Readout: Variation
Note: a bare number is incomplete; add the unit.

Enquiry: Give me measured Variation, please, for this molecule: CCOC(=O)c1cnc(N(C)C)nc1CC
Return: -100%

Enquiry: Using the record for CC(C)c1ccnc(N(C)C)n1 , state its measured Variation.
Return: -41.66%

Enquiry: Give reported Variation value for CCc1ccnc(N(C)C)n1
Return: -14.95%

Enquiry: State, in one line, measured Variation of CCOC(=O)c1cnc(N(C)C)nc1C(F)(F)F
Return: -6.66%

Enquiry: Determine from records and report Variation for CN(C)c1nccc(Cc2ccccc2)n1
Return: -3.03%

Enquiry: Write down Variation measured for item COCc1ccnc(N(C)C)n1
Return: -4%

Enquiry: Read off the recorded Variation for Cc1[nH]c(=O)c(C#N)cc1-c1ccncc1 [MILRINONE]
Return: 34.16%

---

Hi there, I'd appreciate the recorded Variation for every entry that follows.
Organism: Cavia porcellus
Method Notes: Effect on the contractile force of spontaneously beating atria from Reserpine-treated guinea pigs as percentage variation from the control at concentration of 3 x 10E-6 M
Format: functional
Units required after the number.

Enquiry: Give the reported value of Variation for this record: Nc1cc(-c2ccncc2)c[nH]c1=O [INAMRINONE]
Return: 0%

Enquiry: Determine from records and report Variation for CN(C)c1ncc(C(=O)O)c(Cc2ccccc2)n1
Return: 9.37%

Enquiry: Indicate its recorded Variation; the molecule in question is CC(C)c1ccnc(N(C)C)n1
Return: 0%

Enquiry: Provide only the value of recorded Variation for CCc1ccnc(N(C)C)n1
Return: 9.91%

Enquiry: Entry CCc1nc(N(C)C)ncc1C(=O)O needs its Variation filled in; supply it.
Return: 2.44%

Enquiry: Check the records and state Variation for CN(C)c1ncc(C(=O)O)c(C(C)(C)C)n1
Return: 7.58%

Enquiry: Return the recorded Variation value; entry: CN(C)c1nccc(C(C)(C)C)n1
Return: 1.13%

Enquiry: Tell me Variation reported for CCOC(=O)c1cnc(N(C)C)nc1C(C)C
Return: 3.19%

Enquiry: Provide Variation value for the following molecule: CCCc1nc(N(C)C)ncc1C(=O)O
Return: 8.66%

Enquiry: Please look at this molecule and report its Variation: CC(C)c1nc(N(C)C)ncc1C(=O)O
Return: 4.06%

Enquiry: Let me know recorded Variation for Cc1nc(N(C)C)ncc1C(=O)O , thanks.
Return: 3.77%

Enquiry: Provide Variation value for the following molecule: CCCc1ccnc(N(C)C)n1
Return: 7.18%

Enquiry: Query Variation for CN(C)c1nccc(-c2ccccc2)n1
Return: 4.67%

Enquiry: Tell me measured Variation for CN(C)c1ncccn1 please.
Return: 4.92%

Enquiry: Provide measured Variation value, entry: CN(C)c1nccc(Cc2ccccc2)n1
Return: 10.71%

Enquiry: Entry CCCc1nc(N(C)C)ncc1C(=O)OCC needs its Variation filled in; supply it.
Return: -5.29%

Enquiry: Please look at this molecule and report its Variation: CN(C)c1ncc(C(=O)O)c(-c2ccccc2)n1
Return: 10.63%

Enquiry: Entry CCOC(=O)c1cnc(N(C)C)nc1 needs its Variation filled in; supply it.
Return: 4.76%

Enquiry: Please report Variation for the following molecule: COCc1ccnc(N(C)C)n1
Return: 0%

Enquiry: Supply recorded Variation for CN(C)c1ncc(C(=O)O)c(C(F)(F)F)n1 here.
Return: 6.15%

Enquiry: Specify Variation for CCOC(=O)c1cnc(N(C)C)nc1C(=O)OCC and stop.
Return: 2.18%

Enquiry: For the molecule CCOC(=O)c1cnc(N(C)C)nc1C(C)(C)C , give its reported Variation.
Return: 2.08%

Enquiry: Please report Variation for the following molecule: Cc1ccnc(N(C)C)n1
Return: 2.27%

Enquiry: In one line, give reported Variation of the entry COCc1nc(N(C)C)ncc1C(=O)OC .
Return: 6.93%

Enquiry: Specify reported Variation for the molecule shown: CCOC(=O)c1cnc(N(C)C)nc1C(F)(F)F
Return: 11.26%

Enquiry: Give reported Variation value for COCc1nc(N(C)C)ncc1C(=O)O
Return: 9.16%

Enquiry: Consider the molecule CCOC(=O)c1cnc(N(C)C)nc1-c1ccccc1 and give its recorded Variation.
Return: 10.24%

Enquiry: Determine its reported Variation: CCOC(=O)c1cnc(N(C)C)nc1CC
Return: 0%

Enquiry: // fetch Variation given entry CCOC(=O)c1cnc(N(C)C)nc1C
Return: 7.12%

Enquiry: Please report the measured Variation for CN(C)c1ncc(C(=O)O)cn1
Return: 6.36%

---

Task for the reader: assign each of the following compounds its reported Variation.
Organism: Cavia porcellus
Method Notes: Effect on the contractile force of spontaneously beating atria from Reserpine-treated guinea pigs as percentage variation from the control at concentration of 10E-5 M
Type: functional
Entry rule: numbers only, all in %.

Enquiry: Give the reported Variation for this compound. CCOC(=O)c1cnc(N(C)C)nc1-c1ccccc1
Return: 12.05

Enquiry: Fill in reported Variation for this entry: CN(C)c1nccc(C(F)(F)F)n1
Return: -12.62

Enquiry: Please supply the value of reported Variation for the item COCc1nc(N(C)C)ncc1C(=O)O
Return: 9.99

Enquiry: Entry CN(C)c1ncccn1 needs its Variation filled in; supply it.
Return: 9.17

Enquiry: Output measured Variation for this item: CCCc1nc(N(C)C)ncc1C(=O)OCC
Return: -57.89

Enquiry: Name the recorded Variation of the compound listed here: CN(C)c1ncc(C(=O)O)c(-c2ccccc2)n1
Return: 11.47

Enquiry: Write down Variation measured for item CN(C)c1ncc(C(=O)O)c(C(F)(F)F)n1
Return: 9.45

Enquiry: Find the measured Variation of CN(C)c1nccc(-c2ccccc2)n1 and report it.
Return: 7.52

Enquiry: Tell me Variation reported for CCOC(=O)c1cnc(N(C)C)nc1C(C)C
Return: 1.06

Enquiry: Please give measured Variation of the following entry: CN(C)c1ncc(C(=O)O)cn1
Return: 7.54

Enquiry: Fill in Variation for record CCOC(=O)c1cnc(N(C)C)nc1C
Return: 9.91

Enquiry: Identify the reported Variation for the following entry. Cc1ccnc(N(C)C)n1
Return: 8.9

Enquiry: Note down Variation recorded for CCOC(=O)c1cnc(N(C)C)nc1
Return: 5.55

Enquiry: Respond only with Variation recorded for COCc1nc(N(C)C)ncc1C(=O)OC
Return: 11.14

Enquiry: Return the recorded Variation value; entry: CCCc1ccnc(N(C)C)n1
Return: 3.15

Enquiry: Assign Variation to the following record: CCOC(=O)c1cnc(N(C)C)nc1C(F)(F)F
Return: 10.67

Enquiry: Using the record for CCc1ccnc(N(C)C)n1 , state its measured Variation.
Return: 15.05

Enquiry: Query Variation for COC(=O)c1cnc(N(C)C)nc1Cc1ccccc1
Return: 8.97

Enquiry: Provide only the value of recorded Variation for CCCc1nc(N(C)C)ncc1C(=O)O
Return: 11.21
